Answer each item with its documented LD50 at 336 h.
Test: Acute toxicity, oral, rats
Assay type: in vivo
Settings: rat, in vivo, SD rats, read-out: Rats LD₅₀
Where a name gives a salt, the structure may show the parent alone.

(Q) Request the reported LD50 at 336 h associated with CS(=O)(=O)Nc1ccc(F)c([C@@H](O)CN)c1.O=C(O)C(O)C(O)C(=O)O [(49K)]
(A) > 1000 mg/kg

(Q) Another molecule to check: CNC[C@H](O)c1ccc(F)c(NS(C)(=O)=O)c1 [(61B)]
(A) 36.1 mg/kg

(Q) Note, next up: CNCC(O)c1cc(NS(C)(=O)=O)ccc1Cl (racemic) [(67A), hydrochloride, reference compound]
(A) > 300 mg/kg

(Q) What about this molecule? CS(=O)(=O)Nc1cc(C(O)CN)c(F)cc1F.Cl (racemic) [(63A)]
(A) > 300 mg/kg

(Q) Follow-up entry: CNCC(O)c1cccc(NS(C)(=O)=O)c1 (centres unmarked) [Amidephrine, reference compound]
(A) 12.4 mg/kg

---

Would you mind telling me the reported Rats Dead/ Total of each entry?
Test system: rats (SD strain, male)
Assay: Acute toxicity, oral, rats
Type: in vivo
Conditions: 100 mg/kg, observed two weeks
Where a name gives a salt, the structure may show the parent alone.

(Q) Quick one: Rats Dead/ Total of CNC[C@H](O)c1ccc(F)c(NS(C)(=O)=O)c1 [(61B)] ?
(A) 5 / 6

(Q) One more compound: CS(=O)(=O)Nc1ccc(F)c(C(O)CN)c1 (racemic) [(49A), hydrochloride]
(A) 0 / 6

(Q) # repeat for CS(=O)(=O)Nc1cccc([C@@H](O)CN)c1.Cl [(24B), reference compound]
(A) 5 / 6

---

Test: Acute toxicity, oral, rats
Type: in vivo
Conditions: rat, in vivo, SD rats, read-out: Rats LD₅₀
Counter-ions that a name gives are not always drawn.
Give measured LD50 at 336 h for each item. Keep answers brief.

(Q) What value of LD50 at 336 h has been recorded for this entry: CNCC(O)c1ccc(F)c(NS(C)(=O)=O)c1.Cl (racemic) [(61A), reference compound]
(A) > 300 mg/kg

(Q) Let us now turn to CS(=O)(=O)Nc1cccc([C@@H](O)CN)c1.Cl [(24B), reference compound]
(A) 23.2 mg/kg

(Q) And the next one, CS(=O)(=O)Nc1cc(F)cc(C(O)CN)c1.Cl (racemic) [(73A)] ?
(A) ~200 mg/kg

(Q) Next up: CNCC(O)c1cc(NS(C)(=O)=O)c(F)cc1F.Cl (racemic) [(71A)]
(A) > 300 mg/kg

(Q) Now consider C[C@H](N)[C@H](O)c1ccc(F)c(NS(C)(=O)=O)c1 (racemic) [(70A), hydrochloride] and answer again.
(A) > 300 mg/kg

(Q) Proceed to CS(=O)(=O)Nc1ccc(F)c(C(O)CN)c1 (racemic) [(49A), hydrochloride]
(A) > 500 mg/kg

(Q) Field entry: C[C@H](N)[C@H](O)c1cc(NS(C)(=O)=O)ccc1F (racemic) [(59A), hydrochloride]
(A) > 100 mg/kg

(Q) Could you do the same for CS(=O)(=O)Nc1ccc(F)c([C@@H](O)CN)c1.Cl [(49B)] , please?
(A) > 1000 mg/kg

(Q) Try this compound too: CS(=O)(=O)Nc1cccc(C(O)CN)c1.Cl (racemic) [(24A), reference compound]
(A) > 300 mg/kg
